// data source = patent US7872014B2

- SYSTEM_UNDER_TEST: ALK (baculovirus expressed human ALK kinase domain F1098-K1410) (Homo sapiens, UniProt Q9UM73)
- Sequence (Q9UM73 1098-1410): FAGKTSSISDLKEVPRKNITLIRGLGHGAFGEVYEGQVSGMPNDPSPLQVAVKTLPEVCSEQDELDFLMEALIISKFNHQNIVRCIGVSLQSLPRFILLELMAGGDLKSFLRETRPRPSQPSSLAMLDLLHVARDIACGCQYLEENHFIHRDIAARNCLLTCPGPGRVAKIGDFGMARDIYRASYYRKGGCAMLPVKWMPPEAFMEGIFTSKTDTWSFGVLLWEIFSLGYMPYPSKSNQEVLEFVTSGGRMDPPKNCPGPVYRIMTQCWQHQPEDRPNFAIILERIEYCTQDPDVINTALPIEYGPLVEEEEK
pIC50: −log10 of the molar value.

COMPOUND | pIC50
COCCOc1cc2c(cc1C)c(-c1ccc(O)c(Cl)c1)nc1[nH]nc(C)c12 [Example 131] | ≥ 7.00
COCCN(CCOC)CCOc1cc(F)c2c(-c3ccc(O)c(Cl)c3)nc3[nH]nc(C)c3c2c1OC [Example 244] | ≥ 7.00
COCCOc1cc(F)c2c(-c3ccc(O)cc3)nc3[nH]nc(C)c3c2c1F [Example 120] | ≥ 7.00
COc1ccc2c(-c3ccc(O)cc3)nc3[nH]nc(Cc4ccccc4)c3c2c1 [Example 26] | 6.00 to 7.00
COc1cc2c(c(-c3ccc(O)c(Cl)c3)nc3[nH]nc(C)c32)c(OC)c1OC [Example 147] | ≥ 7.00
Cc1n[nH]c2nc(-c3ccc(O)c(Cl)c3)c3c(F)cc(OCC4CCN(C)CC4)c(F)c3c12 [Example 169] | ≥ 7.00
COc1c(OCCN2CCC(N3CCCC3)CC2)cc(F)c2c(-c3ccc(O)c(Cl)c3)nc3[nH]nc(C)c3c12 [Example 233] | ≥ 7.00
Cc1n[nH]c2nc(-c3ccccc3F)c3c(F)cc4c(c3c12)OCCO4 [Example 160] | 6.00 to 7.00

* * *

Reported IC50 values are given for each entry in this list.
- SYSTEM_UNDER_TEST: ALK (baculovirus expressed human ALK kinase domain F1098-K1410) (Homo sapiens)

SMILES_TEXT | SYSTEM_UNDER_TEST | IC50
COCCOc1c(OC)ccc2c(-c3ccc(O)cc3)nc3[nH]nc(C)c3c12 | ALK (baculovirus expressed human ALK kinase domain F1098-K1410) (Homo sapiens) | ≤ 99 nM
COc1c(OC)c(F)c2c(c(-c3cc(Cl)c(O)cc3F)nc3[nH]nc(C)c32)c1OC | ALK (baculovirus expressed human ALK kinase domain F1098-K1410) (Homo sapiens) | ≤ 99 nM
COCCOc1cc(F)c2c(-c3ccccc3F)nc3[nH]nc(C)c3c2c1F | ALK (baculovirus expressed human ALK kinase domain F1098-K1410) (Homo sapiens) | > 2000 nM
COCCOc1c(OC)ccc2c(-c3ccc(O)c(Br)c3)nc3[nH]nc(C)c3c12 | ALK (baculovirus expressed human ALK kinase domain F1098-K1410) (Homo sapiens) | ≤ 99 nM
COc1c(OCC2CCN(C)CC2)cc(F)c2c(-c3ccc(O)c(Cl)c3)nc3[nH]nc(C)c3c12 | ALK (baculovirus expressed human ALK kinase domain F1098-K1410) (Homo sapiens) | ≤ 99 nM
COCCOc1cc(F)c2c(-c3cc(Cl)c(O)cc3F)nc3[nH]nc(C)c3c2c1OC | ALK (baculovirus expressed human ALK kinase domain F1098-K1410) (Homo sapiens) | ≤ 99 nM
COc1cc2c(-c3ccc(O)cc3)nc3[nH]nc(C(C)C)c3c2cc1OC | ALK (baculovirus expressed human ALK kinase domain F1098-K1410) (Homo sapiens) | 100 to 999 nM
COc1cc(F)c2c(-c3ccc(O)cc3)nc3[nH]nc(C)c3c2c1F | ALK (baculovirus expressed human ALK kinase domain F1098-K1410) (Homo sapiens) | ≤ 99 nM
